Hello, the source for this data is patent US20210163308A1, in case you need it.

tested on: primary human cells (3C, 4H, LPS, SAg, BT, BF4T, BE3C, CASM3C, HDF3CGF, KF3CT, MyoF, /Mphg systems); test: Study CSM001-01-b: biomarker readouts in primary human cell systems, compounds in DMSO; format: cell-based; conditions: tissue remodeling activity
recorded_metric: PAI-I

compound	recorded_metric	value_reported
O=C(O)c1cc(O)c(O)c(O)c1 [gallic acid, 3,4,5-trihydroxy benzoic acid]	PAI-I	modulated
CC(O)CC(=O)O (stereo not drawn) [beta hydroxybutyric acid]	PAI-I	modulated
